Measured values drawn from patent US20160368965A1 for this set.

target: T1, HLA-A*02:01 (human)
T1 construct: the tested peptide takes its place; also called peptide-receptive MHC molecules; MHC class I
measurementNotes: UV-ligand exchange, anti-β2m ELISA; grade of peptide exchange yield
# peptide exchange yield listing for each entry below

# binder, peptide exchange yield
records = [
    ("FLTPSIFII [FLTPSIFII (SEQ ID NO: 39)]", "20 to 50%"),
    ("SLMDPNKFLLL [SLMDPNKFLLL (SEQ ID NO: 115)]", "50 to 75%"),
    ("LLGPAGARA [LLGPAGARA (SEQ ID NO: 51)]", "20 to 50%"),
    ("VLLPDERTISL [VLLPDERTISL (SEQ ID NO: 160)]", "≥ 75%"),
    ("ALYTGSALDFV [ALYTGSALDFV (SEQ ID NO: 8)]", "50 to 75%"),
    ("YLDEDTIYHL [YLDEDTIYHL (SEQ ID NO: 121)]", "20 to 50%"),
    ("LMMSEDRISL [LMMSEDRISL (SEQ ID NO: 113)]", "50 to 75%"),
    ("SLWEDYPHV [SLWEDYPHV (SEQ ID NO: 60)]", "≥ 75%"),
    ("SLSESFFMV [SLSESFFMV (SEQ ID NO: 59)]", "50 to 75%"),
    ("LLDGFPRTV [LLDGFPRTV (SEQ ID NO: 49)]", "20 to 50%"),
    ("GLAPQIHDL [GLAPQIHDL (SEQ ID NO: 40)]", "20 to 50%"),
    ("ALLGKLDAINV [ALLGKLDAINV (SEQ ID NO: 125)]", "50 to 75%"),
    ("KLDSSGGAVQL [KLDSSGGAVQL (SEQ ID NO: 23)]", "20 to 50%"),
]
